Measured Maximum activity ratio (A520/A495) of individual entries
system name: THR-β ligand-binding domain (H6-THR-β) (Homo sapiens, UniProt P10828)
Construct: made in house; host or cells: Escherichia coli BL21 (DE3), vector pET28a
Sequence (P10828 217-461 limits assumed): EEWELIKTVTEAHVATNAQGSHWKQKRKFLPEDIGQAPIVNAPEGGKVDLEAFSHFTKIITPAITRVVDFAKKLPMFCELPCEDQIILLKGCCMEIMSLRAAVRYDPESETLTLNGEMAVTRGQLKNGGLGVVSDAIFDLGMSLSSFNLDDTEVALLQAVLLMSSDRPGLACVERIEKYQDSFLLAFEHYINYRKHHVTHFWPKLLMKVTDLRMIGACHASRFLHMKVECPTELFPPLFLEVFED
Sequence (P19793 225-462 partner limits assumed): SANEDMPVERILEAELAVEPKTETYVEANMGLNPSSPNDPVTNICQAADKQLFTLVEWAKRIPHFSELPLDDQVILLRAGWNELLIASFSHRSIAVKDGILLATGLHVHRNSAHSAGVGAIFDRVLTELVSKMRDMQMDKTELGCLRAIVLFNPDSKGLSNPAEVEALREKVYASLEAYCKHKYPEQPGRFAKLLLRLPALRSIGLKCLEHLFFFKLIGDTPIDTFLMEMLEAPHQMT
Sequence (Q15596 679-703 partner limits assumed): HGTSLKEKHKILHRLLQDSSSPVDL
assay protocol: Co-activated peptide recruitment test of THR-β/RXR/GRIP1 (TR_LBD agonist detection, HTRF)
Type: biochemical
protocol conditions: TR_LBD agonist, TR_β
readout name: Maximum activity ratio (A520/A495)

>>> print(df.to_string())
                                   molecule  value_measured
0  N#Cc1nn(-c2cc(Cl)c(Oc3ccc4ncn(CCN5CCCC5)c4c3)c(Cl)c2)c(=O)[nH]c1=O [Compound 5]            2.69
1  Cn1cnc2ccc(Oc3c(Br)cc(-n4nc(C#N)c(=O)[nH]c4=O)cc3Br)cc21 [Compound 1]            4.02
2  Cn1cnc2cc(Oc3c(Br)cc(-n4nc(C#N)c(=O)[nH]c4=O)cc3Br)ccc21 [Compound 4]            1.46
3  N#Cc1nn(-c2cc(Cl)c(Oc3ccc4ncn(C5CCCC5)c4c3)c(Cl)c2)c(=O)[nH]c1=O [Compound 8]            2.96
4  Cn1c(CCc2ccccc2)nc2cc(Oc3c(Cl)cc(-n4nc(C#N)c(=O)[nH]c4=O)cc3Cl)ccc21 [Compound 9]            1.84

###

Measured Measurement of cpd/T3 (maximum ratio) of individual entries
system name: THR-α ligand-binding domain (H6-THR-α) (Homo sapiens)
Construct: made in house; host or cells: Escherichia coli BL21 (DE3), vector pET28a
assay protocol: Co-activated peptide recruitment test of THR-α/RXR/GRIP1 (TR_LBD agonist detection, HTRF)
Type: biochemical
protocol conditions: TR_LBD agonist, TR_α; maximum relative to T3
readout name: Measurement of cpd/T3 (maximum ratio) (%)

>>> df
                                   compound                           readout_name  value_measured
0  Cn1cnc2cc(Oc3c(Br)cc(-n4nc(C#N)c(=O)[nH]c4=O)cc3Br)ccc21 [Compound 4]  Measurement of cpd/T3 (maximum ratio)            29.5
1  Cn1cnc2ccc(Oc3c(Br)cc(-n4nc(C#N)c(=O)[nH]c4=O)cc3Br)cc21 [Compound 1]  Measurement of cpd/T3 (maximum ratio)            71.1
2  N#Cc1nn(-c2cc(Cl)c(Oc3ccc4ncn(C5CCCC5)c4c3)c(Cl)c2)c(=O)[nH]c1=O [Compound 8]  Measurement of cpd/T3 (maximum ratio)            43.0
3  N#Cc1nn(-c2cc(Cl)c(Oc3ccc4ncn(CCN5CCCC5)c4c3)c(Cl)c2)c(=O)[nH]c1=O [Compound 5]  Measurement of cpd/T3 (maximum ratio)            45.5

###

system name: THR-β ligand-binding domain (H6-THR-β) (Homo sapiens)
assay protocol: Co-activated peptide recruitment test of THR-β/RXR/GRIP1 (TR_LBD agonist detection, HTRF)
protocol conditions: Detection of TR_LBD agonist; read-out: TR_beta_EC50
EC50 strictly less than 0.05 µM = Fulfilled. Otherwise Not fulfilled.

In [3]: df
Out[3]:
                                   compound   answer_label
0  N#Cc1nn(-c2cc(Cl)c(Oc3ccc4ncn(C5CCCC5)c4c3)c(Cl)c2)c(=O)[nH]c1=O      Fulfilled
1  Cn1cnc2ccc(Oc3c(Br)cc(-n4nc(C#N)c(=O)[nH]c4=O)cc3Br)cc21      Fulfilled
2  Cn1cnc2cc(Oc3c(Br)cc(-n4nc(C#N)c(=O)[nH]c4=O)cc3Br)ccc21  Not fulfilled
3  Cn1cnc2cc(Oc3c(Cl)cc(-n4nc(C#N)c(=O)[nH]c4=O)cc3Cl)ccc21  Not fulfilled
4  N#Cc1nn(-c2cc(Cl)c(Oc3ccc4ncn(C5CCNC5)c4c3)c(Cl)c2)c(=O)[nH]c1=O (centres unmarked)  Not fulfilled
5  Cn1c(CCc2ccccc2)nc2cc(Oc3c(Cl)cc(-n4nc(C#N)c(=O)[nH]c4=O)cc3Cl)ccc21      Fulfilled
6  N#Cc1nn(-c2cc(Cl)c(Oc3ccc4ncn(CCN5CCCC5)c4c3)c(Cl)c2)c(=O)[nH]c1=O      Fulfilled
7  N#Cc1nn(-c2cc(Cl)c(Oc3ccc4ncn(C5CCN(Cc6ccccc6)C5)c4c3)c(Cl)c2)c(=O)[nH]c1=O (centres unmarked)      Fulfilled

###

Measured Measurement of cpd/T3 (maximum ratio) of individual entries
system name: THR-β ligand-binding domain (H6-THR-β) (Homo sapiens, UniProt P10828)
Construct: made in house; host or cells: Escherichia coli BL21 (DE3), vector pET28a
assay protocol: Co-activated peptide recruitment test of THR-β/RXR/GRIP1 (TR_LBD agonist detection, HTRF)
Format: biochemical
protocol conditions: TR_LBD agonist, TR_β; maximum relative to T3
Protocol: A ligand binding domain of THR-β (amino acids 148-410) (H6-THR-β) and a ligand binding domain of THR-α (amino acids 202-461) (H6-TRα) were cloned into E. coli expression vector pET28a (Novagen, Milwaukee, Wis.) containing N-terminal six His sequences. […] 30 microliters of H6-THR-β (50 nM) or H6-THR-α in 50 mM Hepes, pH 7.0, 1 mM DTT, 0.05% NP40 and 0.2 mg/ml BSA (binding buffer) were mixed with an equal volume of EE-RxRα (50 nM) in the binding buffer. […] EC50 was calculated. […]
readout name: Measurement of cpd/T3 (maximum ratio)

                                   compound  value_measured
0  N#Cc1nn(-c2cc(Cl)c(Oc3ccc4ncn(C5CCCC5)c4c3)c(Cl)c2)c(=O)[nH]c1=O [Compound 8]           54.0%
1  N#Cc1nn(-c2cc(Cl)c(Oc3ccc4ncn(CCN5CCCC5)c4c3)c(Cl)c2)c(=O)[nH]c1=O [Compound 5]           49.1%
2  N#Cc1nn(-c2cc(Cl)c(Oc3ccc4ncn(C5CCN(Cc6ccccc6)C5)c4c3)c(Cl)c2)c(=O)[nH]c1=O (stereo not shown) [Compound 7]           22.6%
3  Cn1cnc2cc(Oc3c(Br)cc(-n4nc(C#N)c(=O)[nH]c4=O)cc3Br)ccc21 [Compound 4]           26.6%
4  Cn1c(CCc2ccccc2)nc2cc(Oc3c(Cl)cc(-n4nc(C#N)c(=O)[nH]c4=O)cc3Cl)ccc21 [Compound 9]           33.6%
5  Cn1cnc2ccc(Oc3c(Br)cc(-n4nc(C#N)c(=O)[nH]c4=O)cc3Br)cc21 [Compound 1]           73.4%
6  Cn1cnc2cc(Oc3c(Cl)cc(-n4nc(C#N)c(=O)[nH]c4=O)cc3Cl)ccc21 [Compound 2]           22.1%

###

Measured α/β of individual entries
system name: THR-β ligand-binding domain (H6-THR-β) (Homo sapiens)
Construct: made in house; host or cells: Escherichia coli BL21 (DE3), vector pET28a
assay protocol: Co-activated peptide recruitment test of THR-β/RXR/GRIP1 (TR_LBD agonist detection, HTRF)
Type: biochemical
protocol conditions: TR_LBD agonist; ratio TR_α EC50 / TR_β EC50
readout name: α/β

In [3]: df
Out[3]:
                         structure_notation  readout_name  inequality_symbol  value_measured
0  N#Cc1nn(-c2cc(Cl)c(Oc3ccc4ncn(C5CCCC5)c4c3)c(Cl)c2)c(=O)[nH]c1=O           α/β                  =           10.04
1  Cn1cnc2cc(Oc3c(Br)cc(-n4nc(C#N)c(=O)[nH]c4=O)cc3Br)ccc21           α/β                  =           11.25
2  N#Cc1nn(-c2cc(Cl)c(Oc3ccc4ncn(CCN5CCCC5)c4c3)c(Cl)c2)c(=O)[nH]c1=O           α/β                  =           28.81
3  Cn1c(CCc2ccccc2)nc2cc(Oc3c(Cl)cc(-n4nc(C#N)c(=O)[nH]c4=O)cc3Cl)ccc21           α/β                  >          337.84
4  Cn1cnc2ccc(Oc3c(Br)cc(-n4nc(C#N)c(=O)[nH]c4=O)cc3Br)cc21           α/β                  =            7.13

###

system name: THR-α ligand-binding domain (H6-THR-α) (Homo sapiens, UniProt P10827)
Sequence (P10827 148-410 isoform P10827-2 limits assumed): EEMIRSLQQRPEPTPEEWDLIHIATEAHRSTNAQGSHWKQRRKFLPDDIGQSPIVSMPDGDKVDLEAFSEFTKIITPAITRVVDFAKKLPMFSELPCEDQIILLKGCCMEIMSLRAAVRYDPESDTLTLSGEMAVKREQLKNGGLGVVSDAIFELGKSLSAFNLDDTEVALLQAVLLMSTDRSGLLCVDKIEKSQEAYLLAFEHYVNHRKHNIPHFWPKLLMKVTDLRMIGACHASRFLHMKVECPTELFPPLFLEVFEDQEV
Sequence (P19793 225-462 partner limits assumed): as the sequence (P19793 225-462 partner limits assumed) above
assay protocol: Co-activated peptide recruitment test of THR-α/RXR/GRIP1 (TR_LBD agonist detection, HTRF)
protocol conditions: Detection of TR_LBD agonist; read-out: TR_α_EC50
readout name: EC50 (µM)

>>> df
                                   compound  inequality_symbol  value_measured
0  Cn1cnc2cc(Oc3c(Br)cc(-n4nc(C#N)c(=O)[nH]c4=O)cc3Br)ccc21 [Compound 4]                  =           0.581
1  N#Cc1nn(-c2cc(Cl)c(Oc3ccc4ncn(C5CCCC5)c4c3)c(Cl)c2)c(=O)[nH]c1=O [Compound 8]                  =           0.055
2  N#Cc1nn(-c2cc(Cl)c(Oc3ccc4ncn(CCN5CCCC5)c4c3)c(Cl)c2)c(=O)[nH]c1=O [Compound 5]                  =            1.31
3  Cn1cnc2ccc(Oc3c(Br)cc(-n4nc(C#N)c(=O)[nH]c4=O)cc3Br)cc21 [Compound 1]                  =          0.0353
4  Cn1c(CCc2ccccc2)nc2cc(Oc3c(Cl)cc(-n4nc(C#N)c(=O)[nH]c4=O)cc3Cl)ccc21 [Compound 9]                  >               5
5  N#Cc1nn(-c2cc(Cl)c(Oc3ccc4ncn(C5CCN(Cc6ccccc6)C5)c4c3)c(Cl)c2)c(=O)[nH]c1=O (stereo not shown) [Compound 7]                  >               5
6  Cn1cnc2cc(Oc3c(Cl)cc(-n4nc(C#N)c(=O)[nH]c4=O)cc3Cl)ccc21 [Compound 2]                  >               5
